Target: T1, recombinant cynomolgus monkey PD-1 expressed with a C-terminal myc-myc-hexahistidine tag (cynomolgus monkey (Macaca fascicularis))
T1 construct: monomeric; also called MfPD-1-MMH
T1 chain: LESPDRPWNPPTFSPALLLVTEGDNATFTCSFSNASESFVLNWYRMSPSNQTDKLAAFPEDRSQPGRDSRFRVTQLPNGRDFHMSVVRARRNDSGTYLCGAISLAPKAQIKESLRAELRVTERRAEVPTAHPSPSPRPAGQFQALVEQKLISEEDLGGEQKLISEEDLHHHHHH
Assay: SPR, mAb captured, 25C;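 also: rates from fitting Biacore data for PD-1 binding to anti-PD-1 antibodies with a 1:1 model, KD computed as koff/kon and t½ as ln2/(60·koff)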
outcome-measure: kon (M⁻¹ s⁻¹)
Use M⁻¹ s⁻¹ as the unit, but write only the number.

H2aM7780N (antibody, mouse IgG2a, V domains shown, Human variable regions, mouse IgG2a Fc (H2aM prefix); also called H2M7780N) VH: QVQLVESGGGVVQSGRSLRLSCAASGFTFSSYGMHWVRQAPGKGLEWVAVIWYDGSNIYYSDSVKGRFTISRANSKNTLYLQMNSLRAEDTAVYYCARPGHWNYFFEYWGQGTLVTVSS VL: DIQMTQSPSSLSASVGDRVTITCRASQSINNYLNWYQQKPGKAPKLLIYTASSLQSGVPSRFSGSGSGTDFTLTISSLQPEDFATYYCQQSYSTPPLTFGQGTQLEIK    10000

Query: kon; subject: H4H7798N (antibody, human IgG4 S228P, kappa, V domains shown) VH: EVQLLESGGVLVQPGGSLRLSCAASGFTFSNFGMTWVRQAPGKGLEWVSGISGGGRDTYFADSVKGRFTISRDNSKNTLYLQMNSLKGEDTAVYYCVKWGNIYFDYWGQGTLVTVSS VL: DIQMTQSPSSLSASVGDSITITCRASLSINTFLNWYQQKPGKAPNLLIYAASSLHGGVPSRFSGSGSGTDFTLTIRTLQPEDFATYYCQQSSNTPFTFGPGTVVDFRR
143000
